- target_under_test: NDM-1 (Klebsiella pneumoniae)
- Construct: VIM-1; VIM-2
- Sequence (C7C422 29-270, looked up): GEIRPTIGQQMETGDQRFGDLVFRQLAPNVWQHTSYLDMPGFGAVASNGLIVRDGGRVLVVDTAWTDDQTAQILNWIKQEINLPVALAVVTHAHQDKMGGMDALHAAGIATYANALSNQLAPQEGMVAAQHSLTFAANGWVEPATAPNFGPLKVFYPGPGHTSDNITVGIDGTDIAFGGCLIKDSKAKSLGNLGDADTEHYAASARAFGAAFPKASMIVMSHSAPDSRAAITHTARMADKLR
- assay_details: In vitro enzyme inhibition assay (imipenem hydrolysis, UV 299 nm)
- Assay type: biochemical
- particulars: read-out: Ki (µM) NDM-1; purified enzyme, 10mM HEPES pH 7.5, Imipenem 300µM; mean Ki from IC50 by Cheng-Prusoff
assay_readout: Ki

These recorded examples may help you get a feel for the data.
Cc1c[n+](C)cn1CC(=O)Nc1ccc(S(=O)(=O)Nc2scnc2C(=O)[O-])cc1F    0.2 to 0.4 µM
C[n+]1nnn(CC(=O)Nc2ccc(S(=O)(=O)Nc3scnc3C(=O)[O-])cc2F)c1N    < 0.05 µM
N#Cc1cc(S(=O)(=O)Nc2scnc2C(=O)[O-])ccc1NC(=O)Cn1cc[n+](CCNC(=N)N)c1    0.2 to 0.4 µM
NCC[n+]1ccn(CC(=O)Nc2ccc(S(=O)(=O)Nc3scnc3C(=O)[O-])cc2F)c1    < 0.05 µM
NCCC[n+]1ccn(CC(=O)Nc2ccc(S(=O)(=O)Nc3scnc3C(=O)[O-])cc2F)c1    < 0.05 µM

We now examine a further compound.
INPUT: Complete the entry with Ki for N=C(N)NCC[n+]1ccn(CC(=O)Nc2c(F)cc(S(=O)(=O)Nc3scnc3C(=O)[O-])cc2F)c1
OUTPUT: < 0.05 µM
